Dmax values by entry
biological target: AsPC-1 HiBiT-KRASG12D (Homo sapiens, UniProt P01116, G12D); construct: insert the HiBiT tag onto the N-terminus of one or more of the endogenous KRAS alleles; endogenous in cells; host or cells: AsPC-1 (ATCC CRL-1682), CRISPR-Cas9 knock-in clone, one tagged allele; test: HiBiT degradation assay (G12D), AsPC-1 HiBiT-KRASG12D cells; format: cell-based; details: ASPC1, AsPC-1 HiBiT-KRASG12D cells, 24 hours treatment, maximum degradation observed
Sequence (P01116 1-188 isoform P01116-2 G12D): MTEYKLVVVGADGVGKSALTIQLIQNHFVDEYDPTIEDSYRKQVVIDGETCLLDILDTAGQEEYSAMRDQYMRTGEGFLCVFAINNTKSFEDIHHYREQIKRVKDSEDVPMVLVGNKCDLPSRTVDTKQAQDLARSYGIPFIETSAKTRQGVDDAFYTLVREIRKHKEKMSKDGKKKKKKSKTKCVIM

Consider the worked cases shown below.
molecule | measured.quantity | endpoint.result
CCc1cccc2cc(O)cc(-c3ncc4c(N5CC6CCC(C5)N6)nc(OC[C@@]56CCCN5[C@H](COC(=O)N5CC7(C5)CN(c5cc([C@@H](C(=O)N8C[C@H](O)C[C@H]8C(=O)N[C@@H](C)c8ccc(-c9scnc9C)cc8)C(C)C)on5)C7)CC6)nc4c3F)c12 | Dmax | 20 to 60%
CCc1cccc2cc(O)cc(-c3ncc4c(N5CC6CCC(C5)N6)nc(OC[C@]56CCCN5[C@H](CN5CCC(COc7cc([C@H](C(=O)N8C[C@H](O)C[C@H]8C(=O)N[C@@H](C)c8ccc(-c9scnc9C)cc8)C(C)C)on7)CC5)CC6)nc4c3F)c12 | Dmax | 80 to 100%

Query: Requested read-out: Dmax. Entry: CCc1cccc2cc(O)cc(-c3ncc4c(N5CC6CCC(C5)N6)nc(OCCN5CCC6(CC5)CN(c5cc([C@@H](C(=O)N7C[C@H](O)C[C@H]7C(=O)NCc7ccc(-c8scnc8C)cc7)C(C)C)on5)C6)nc4c3F)c12 (relative stereo)
Reply: 20 to 60%

Query: Param item = CCc1cccc2cc(O)cc(-c3ncc4c(N5CC6CCC(C5)N6)nc(OCCN5C[C@@H]6CN(c7cc([C@@H](C(=O)N8C[C@H](O)C[C@H]8C(=O)N[C@@H](C)c8ccc(-c9scnc9C)cc8)C(C)C)on7)C[C@H]6C5)nc4c3F)c12 (relative stereo) ; retrieve measured Dmax.
Reply: 20 to 60%

* * *

Catalogue of compounds with associated DC50
target: AsPC-1 HiBiT-KRASG12D (Homo sapiens, UniProt P01116, G12D); construct: insert the HiBiT tag onto the N-terminus of one or more of the endogenous KRAS alleles; endogenous in cells; host or cells: AsPC-1 (ATCC CRL-1682), CRISPR-Cas9 knock-in clone, one tagged allele; assay: HiBiT degradation assay (G12D), AsPC-1 HiBiT-KRASG12D cells; assay type: cell-based; settings: AsPC-1 HiBiT-KRASG12D cells, 24 hours treatment, HiBiT luminescence

Some solved entries appear below for comparison.
compound | DC50
C#Cc1c(F)ccc2cc(O)cc(-c3ncc4c(N5CC6CCC(C5)N6)nc(OCCN5CCC6(CC5)CN(c5cc(C(C(=O)N7C[C@H](O)C[C@H]7C(=O)N[C@@H](C)c7ccc(-c8ccnn8C)cc7)C(C)C)on5)C6)nc4c3F)c12 (single isomer, unassigned) | < 600 nM
CCc1cccc2cc(O)cc(-c3ncc4c(N5CC6CCC(C5)N6)nc(OC[C@@]56CCCN5[C@H](COC(=O)N5CCN(c7cc([C@H](C(=O)N8C[C@H](O)C[C@H]8C(=O)N[C@@H](C)c8ccc(-c9scnc9C)cc8)C(C)C)on7)CC5)CC6)nc4c3F)c12 [Compound 5] | < 600 nM

Query: Give AsPC-1 HiBiT-KRASG12D (Homo sapiens, UniProt P01116, G12D) DC50 for "CCc1cccc2cc(O)cc(-c3ncc4c(N5CC6CCC(C5)N6)nc(OC[C@H]5CN(CC6CN(c7cc([C@@H](C(=O)N8C[C@H](O)C[C@H]8C(=O)N[C@@H](C)c8ccc(-c9scnc9C)cc8)C(C)C)on7)C6)CCN5C)nc4c3F)c12"
Reply: > 3000 nM

Query: Give DC50 (AsPC-1 HiBiT-KRASG12D (Homo sapiens, UniProt P01116, G12D)) of the following compound: "CCc1cccc2cncc(-c3ncc4c(N5CC6CCC(C5)N6)nc(OCCN5CCC(COc6cc([C@H](C(=O)N7C[C@H](O)C[C@H]7C(=O)N[C@@H](C)c7ccc(-c8scnc8C)cc7)C(C)C)on6)CC5)nc4c3F)c12"
Reply: > 3000 nM
